Tested on: galium
ASSAY SUMMARY: Test C pre-/postemergence herbicide test
Format: in vivo, Galium aparine
ASSAY SETUP: Preemergence, 125 g ai/ha; scale 0 to 100 (0 no effect, 100 complete control)
# Plant response rating, Galium listing for each entry below

| MOLECULE | Plant response rating, Galium |
| --- | --- |
| O=C1NCC(c2ccc(F)c(F)c2)C1C(=O)Nc1cccc(F)c1F (stereo not drawn) [Compound 17] | 70 |
| O=C1NC[C@H](c2cccc(C(F)(F)F)c2)[C@H]1C(=O)Nc1cccc(F)c1F [Compound 206] | 70 |
| O=C1NCC(c2ccc(C(F)(F)F)cc2)C1C(=O)Nc1ccccc1F (stereo not drawn) [Compound 231] | 90 |
| O=C1NCC(c2ccc(Cl)cc2)C1C(=O)Nc1cccc(F)c1F (stereo not drawn) [Compound 218] | 85 |
| O=C1NCC(c2cc(F)c(F)c(F)c2)C1C(=O)Nc1cccc(F)c1F (stereo not drawn) [Compound 48] | 60 |
| O=C1NCC(c2ccc(Cl)c(Cl)c2)C1C(=O)Nc1ccccc1F (racemic) [Compound 14] | 70 |
